pIC50: −log10 of the molar value.
Human immunodeficiency virus type 1 integrase (Human immunodeficiency virus 1) data, read-out pIC50
Sequence (Q7ZJM1 whole entry): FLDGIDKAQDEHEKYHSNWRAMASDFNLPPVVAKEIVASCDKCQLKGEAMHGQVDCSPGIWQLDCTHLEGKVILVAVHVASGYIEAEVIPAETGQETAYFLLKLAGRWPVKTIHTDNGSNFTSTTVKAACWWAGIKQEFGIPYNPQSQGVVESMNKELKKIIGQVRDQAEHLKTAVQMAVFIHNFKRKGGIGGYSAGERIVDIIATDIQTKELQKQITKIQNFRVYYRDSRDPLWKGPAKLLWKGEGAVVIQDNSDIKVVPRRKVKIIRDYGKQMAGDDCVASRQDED

Smiles Record	pIC50
O=C(O)Cn1cc(C(=O)O)c(=O)c2cc(Cc3cccc(Cl)c3Cl)ccc21	7.50
O=C(O)c1c[nH]c2ccc(Cc3cccc(Cl)c3Cl)cc2c1=O	7.16
COc1cc2c(cc1Cc1cccc(Cl)c1F)c(=O)c(C(=O)O)cn2CCO	8.05
